Every entry's value here was drawn from patent US10550105B2.

- Experimental Target: PARP7 (Homo sapiens (Human), UniProt Q7Z3E1)
- Sequence (Q7Z3E1 whole entry): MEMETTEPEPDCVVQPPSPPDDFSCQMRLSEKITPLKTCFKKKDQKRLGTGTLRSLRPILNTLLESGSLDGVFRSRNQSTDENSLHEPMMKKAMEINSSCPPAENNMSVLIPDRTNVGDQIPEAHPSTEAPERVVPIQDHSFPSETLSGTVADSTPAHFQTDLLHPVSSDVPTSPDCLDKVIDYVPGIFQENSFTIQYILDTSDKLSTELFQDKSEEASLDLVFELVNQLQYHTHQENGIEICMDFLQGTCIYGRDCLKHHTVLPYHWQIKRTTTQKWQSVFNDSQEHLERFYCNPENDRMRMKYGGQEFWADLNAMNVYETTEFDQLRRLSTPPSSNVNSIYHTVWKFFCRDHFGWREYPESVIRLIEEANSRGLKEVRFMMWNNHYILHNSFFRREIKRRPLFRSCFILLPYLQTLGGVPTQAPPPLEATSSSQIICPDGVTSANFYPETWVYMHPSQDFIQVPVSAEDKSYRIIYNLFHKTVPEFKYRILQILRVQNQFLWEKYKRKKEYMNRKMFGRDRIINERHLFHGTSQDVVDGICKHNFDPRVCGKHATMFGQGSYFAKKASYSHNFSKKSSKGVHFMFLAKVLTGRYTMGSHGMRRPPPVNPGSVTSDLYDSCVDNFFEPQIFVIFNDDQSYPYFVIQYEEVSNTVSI
- Assay Name: Enzymatic assay for inhibition of PARP7: TR-FRET displacement of biotinylated Probe A from the TIPARP active site
- Format: binding
- Experimental Parameters: Table A-1
Reported Endpoint: IC50

{"Compound": "O=c1[nH]ncc(N2Cc3ccncc3C2)c1C(F)(F)F [Example 280]", "Experimental Target": "PARP7 (Homo sapiens (Human), UniProt Q7Z3E1)", "Result": "100 to 1000 nM"}
{"Compound": "CC(=O)N1CCC(Oc2cc3c(cc2F)CN(c2cn[nH]c(=O)c2C(F)(F)F)C3)CC1 [Example 1]", "Experimental Target": "PARP7 (Homo sapiens (Human), UniProt Q7Z3E1)", "Result": "< 100 nM"}
{"Compound": "N#Cc1ccc(N2CCC3(CN(C(=O)CCOC[C@@H]4CCCN4c4cn[nH]c(=O)c4C(F)(F)F)C3)C2)nc1 [Example 109]", "Experimental Target": "PARP7 (Homo sapiens (Human), UniProt Q7Z3E1)", "Result": "100 to 1000 nM"}
{"Compound": "CC[C@@H](COCCC(=O)N1CCN(c2ccc(C#N)cn2)CC1)Oc1cn[nH]c(=O)c1C(F)(F)F [Example 589]", "Experimental Target": "PARP7 (Homo sapiens (Human), UniProt Q7Z3E1)", "Result": "< 100 nM"}
{"Compound": "COC[C@@H](COCCC(=O)N1CCN(c2ncc(Cl)cn2)CC1)Oc1cn[nH]c(=O)c1C(F)(F)F (single isomer, unassigned)", "Experimental Target": "PARP7 (Homo sapiens (Human), UniProt Q7Z3E1)", "Result": "< 100 nM"}
{"Compound": "C[C@H]1c2ccccc2CN1c1cn[nH]c(=O)c1C(F)(F)F [Example 250]", "Experimental Target": "PARP7 (Homo sapiens (Human), UniProt Q7Z3E1)", "Result": "100 to 1000 nM"}
{"Compound": "O=c1[nH]ncc(N2Cc3cc(F)c(OCC4CCCNC4)cc3C2)c1C(F)(F)F (centres unmarked) [Example 44]", "Experimental Target": "PARP7 (Homo sapiens (Human), UniProt Q7Z3E1)", "Result": "< 100 nM"}
{"Compound": "C[C@@H](COCCC(=O)N1CC[C@@H]2[C@H]1CCN2c1ncc(C(F)(F)F)cn1)Nc1cn[nH]c(=O)c1C(F)(F)F [Example 688]", "Experimental Target": "PARP7 (Homo sapiens (Human), UniProt Q7Z3E1)", "Result": "< 100 nM"}
{"Compound": "N#Cc1ccc(N2CCN(C(=O)CCOC[C@@H]3CCCN3c3cn[nH]c(=O)c3C#N)CC2)nc1 [Example 127]", "Experimental Target": "PARP7 (Homo sapiens (Human), UniProt Q7Z3E1)", "Result": "< 100 nM"}
{"Compound": "N#Cc1ccc(N2CCN(C(=O)c3nccc(OCC4c5ccccc5CN4c4cn[nH]c(=O)c4C(F)(F)F)n3)CC2)nc1 (centres unmarked) [Example 46]", "Experimental Target": "PARP7 (Homo sapiens (Human), UniProt Q7Z3E1)", "Result": "< 100 nM"}

Hi there! I need IC50 for each item below, if you can.
1. Cc1c(N2Cc3ccc(OCCO)cc3C2)cn[nH]c1=O [Example 188]
2. O=c1[nH]ncc(N2Cc3cccc(OC4CCNCC4)c3C2)c1C1CC1 [Example 183, formic acid]
3. O=c1[nH]ncc(N2Cc3cccc(OCCO)c3C2)c1C(F)(F)F [Example 181]
4. N#Cc1ccc(N2CCN(C(=O)c3cccc(OCC4c5ccccc5CN4c4cn[nH]c(=O)c4C(F)(F)F)c3)CC2)nc1 (centres unmarked) [Example 340]

A)
100 to 1000 nM
≥ 1000 nM
< 100 nM
< 100 nM

* * *

- Experimental Target: PARP7 (Homo sapiens (Human), UniProt Q7Z3E1)
- Assay Name: Enzymatic assay for inhibition of PARP7: TR-FRET displacement of biotinylated Probe A from the TIPARP active site
- Experimental Parameters: Table A-1
Reported Endpoint: IC50

# count of solved cases: 3
{"Molecule": "O=c1[nH]ncc(N2Cc3c(F)ccc(OCCO)c3C2)c1C(F)(F)F", "Experimental Target": "PARP7 (Homo sapiens (Human), UniProt Q7Z3E1)", "IC50": "100 to 1000 nM"}
{"Molecule": "O=c1[nH]ncc(N2Cc3nccc(OC4CCNCC4)c3C2)c1C(F)(F)F", "Experimental Target": "PARP7 (Homo sapiens (Human), UniProt Q7Z3E1)", "IC50": "100 to 1000 nM"}
{"Molecule": "N#Cc1ccc(N2CC3(CN(C(=O)CCOC[C@@H]4CCCN4c4cn[nH]c(=O)c4C(F)(F)F)C3)C2)nc1", "Experimental Target": "PARP7 (Homo sapiens (Human), UniProt Q7Z3E1)", "IC50": "100 to 1000 nM"}

Hi there! I need IC50 for each item below, if you can.
1. O=c1[nH]ncc(N2Cc3ccc(OCCN4CCOCC4)nc3C2)c1C(F)(F)F
2. CC(=O)N1CCC(NCc2cc3c(cc2F)CN(c2cn[nH]c(=O)c2C(F)(F)F)C3)CC1
3. O=C(c1cncc(OCC2c3ccccc3CN2c2cn[nH]c(=O)c2C(F)(F)F)c1)N1CCN(c2ccc(C(F)(F)F)cn2)CC1 (stereo not shown)
4. N#Cc1ccc(N2C[C@@H]3C[C@H]2CN3C(=O)CCOC[C@@H]2CCCN2c2cn[nH]c(=O)c2C(F)(F)F)nc1 [Example 112A]

A)
100 to 1000 nM
< 100 nM
< 100 nM
100 to 1000 nM

* * *

Please respond with reported IC50 for every item in the list.
- Experimental Target: PARP7 (Homo sapiens (Human))
- Assay Name: Enzymatic assay for inhibition of PARP7: TR-FRET displacement of biotinylated Probe A from the TIPARP active site
- Type: binding
- Experimental Parameters: Table A-1

{"Compound": "C[C@@H](COCCC(=O)N1CCN(c2ncc(C(F)(F)F)cn2)CC1)N(C)c1cn[nH]c(=O)c1C(F)(F)F", "Result": "100 to 1000 nM"}
{"Compound": "O=c1[nH]ncc(N2Cc3cnc(OC4CCNCC4)cc3C2)c1C(F)(F)F", "Result": "100 to 1000 nM"}
{"Compound": "CC(C)c1c(N2Cc3cccc(OC4CCNCC4)c3C2)cn[nH]c1=O", "Result": "≥ 1000 nM"}

Hi there! I need IC50 for each item below, if you can.
1. CC(O)c1cccc2c1CN(c1cn[nH]c(=O)c1C(F)(F)F)C2 (stereo not shown)
2. O=C(c1cccc(OC[C@H]2c3ccccc3CN2c2cn[nH]c(=O)c2C(F)(F)F)c1)N1CCN(c2ccccn2)CC1
3. O=C(c1cccc(OC[C@H]2c3ccccc3CN2c2cn[nH]c(=O)c2C(F)(F)F)c1)N1CCN(c2ccc(C(F)(F)F)cn2)CC1 (single isomer, unassigned) [Example 30 Isomer A]

A)
100 to 1000 nM
100 to 1000 nM
≥ 1000 nM

Q) Need IC50, item N#Cc1ccc(N2CCN(C(=O)c3ccc(OCc4cccc5c4CN(c4cn[nH]c(=O)c4C(F)(F)F)C5)cc3)CC2)nc1
A) < 100 nM

* * *

- Experimental Target: PARP7 (Homo sapiens (Human), UniProt Q7Z3E1)
- Assay Name: Enzymatic assay for inhibition of PARP7: TR-FRET displacement of biotinylated Probe A from the TIPARP active site
- Experimental Parameters: Table A-1
Reported Endpoint: IC50

Hi there! I need IC50 for each item below, if you can.
1. O=c1[nH]ncc(N2Cc3ccnc(OC4CCNCC4)c3C2)c1C(F)(F)F
2. O=C(CCOC[C@@H]1c2ccccc2CN1c1cn[nH]c(=O)c1Cl)N1CCN(c2ncc(C(F)(F)F)cn2)CC1
3. N#Cc1ccc(N2CCN(C(=O)c3cccc(OC[C@@H]4CCCN4c4cn[nH]c(=O)c4C(F)(F)F)c3)CC2=O)nc1
4. N#Cc1ccc(N2CCN(C(=O)C[C@H]3CC[C@H]([C@@H]4c5ccccc5CN4c4cn[nH]c(=O)c4C(F)(F)F)O3)CC2)nc1 (single isomer, unassigned) [Example 612 Isomer C]

A)
["100 to 1000 nM", "< 100 nM", "< 100 nM", "≥ 1000 nM"]

Hi there! I need IC50 for each item below, if you can.
1. O=C(C[C@@H]1CC[C@H]([C@@H]2CCCN2c2cn[nH]c(=O)c2C(F)(F)F)O1)N1CCN(c2ncc(C(F)(F)F)cn2)CC1 [Example 149C]
2. C[C@@H](CSCCC(=O)N1CCN(c2ncc(C(F)(F)F)cn2)CC1)Oc1cn[nH]c(=O)c1C(F)(F)F [Example 621A]

A)
["< 100 nM", "100 to 1000 nM"]

* * *

- Experimental Target: PARP7 (Homo sapiens (Human), UniProt Q7Z3E1)
- Assay Name: Enzymatic assay for inhibition of PARP7: TR-FRET displacement of biotinylated Probe A from the TIPARP active site
- Experimental Parameters: Table A-1
Reported Endpoint: IC50

# count of solved cases: 5
{"Molecule": "O=C(C[C@@H]1CC[C@@H](CNc2cn[nH]c(=O)c2C(F)(F)F)O1)N1CCN(c2ncc(Cl)cn2)CC1 (single isomer, unassigned) [Example 567 Isomer C]", "IC50": "< 100 nM"}
{"Molecule": "N#CCCC(=O)N1CCN(C(=O)CCOC[C@@H]2c3ccccc3CN2c2cn[nH]c(=O)c2C(F)(F)F)CC1", "IC50": "< 100 nM"}
{"Molecule": "O=C(c1cccc(OCC2c3ccccc3CN2c2cn[nH]c(=O)c2C(F)(F)F)c1)N1CCn2ncnc2C1 (stereo not drawn)", "IC50": "< 100 nM"}
{"Molecule": "O=C(C[C@H]1CC[C@@H](CNc2cn[nH]c(=O)c2C(F)(F)F)O1)N1CCN(c2ccc(C(F)(F)F)cn2)CC1 (single isomer, unassigned) [Example 546 Isomer C]", "IC50": "< 100 nM"}
{"Molecule": "COc1cccc2c1C(C)N(c1cn[nH]c(=O)c1C(F)(F)F)C2 (stereo not drawn)", "IC50": "100 to 1000 nM"}

Q) Need IC50, item N#Cc1ccc(N2CCN(C(=O)/C=C/COC[C@H]3c4ccccc4CN3c3cn[nH]c(=O)c3C(F)(F)F)CC2)nc1 [Example 79 Isomer D]
A) < 100 nM
